B1: 1-phosphatidylinositol 4,5-bisphosphate phosphodiesterase gamma-2, residues 772 to 827; numbered along this chain, P16885 (parent)
chain: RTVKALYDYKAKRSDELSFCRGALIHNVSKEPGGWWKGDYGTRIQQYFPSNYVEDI

# Variants of: B1
# test_description: abundance fitness (aPCA) (normalised: wild type 0, dead -1); higher = more abundant; growth selection in yeast, the domain comes from the species named
# reported_conditions: Homo sapiens
Rule: abundance fitness of -0.06 or more gives TRUE; anything lower gives FALSE.

[
  {
    "sequence_text": "RTVKALYDYKAKRSDELSFCRGALIPNVSKEPGGWWKGDYGTRIQQYFPSNYVEDI [H26P]",
    "discrete_label": "FALSE"
  },
  {
    "sequence_text": "RTVKALYDYKAKRSDELSFCRGALIHNVSKEPGGLWKGDYGTRIQQYFPSNYVEDI [W35L]",
    "discrete_label": "TRUE"
  },
  {
    "sequence_text": "RTVKALYDYKAKRSDELSDCRGALIHNVSKEPGGWWKGDYGTRIQQYFPSNYVEDI [F19D]",
    "discrete_label": "FALSE"
  }
]

Q. Please tell me: is the variant RTVKALYDYKAKSSDELSFCRGALIHNVSKEPGGWWKGDYGTRIQQYFPSNYVEDI [R13S] at or over -0.06 in terms of abundance fitness?
A. TRUE

Q. Entry RTVKALYDYKAKRSDEMSFCRGALIHNVSKEPGGWWKGDYGTRIQQYFPSNYVEDI [L17M] please
A. TRUE

Q. Entry RTVKALYDYKAKLSDELSFCRGALIHNVSKEPGGWWKGDYGTRIQQYFPSNYVEDI [R13L] please
A. FALSE

Q. Entry RTVYALYDYKAKRSDELSFCRGALIHNVSKEPGGWWKGDYGTRIQQYFPSNYVEDI [K4Y] please
A. TRUE
